# target_or_system: active p38 alpha enzyme (Upstate Biotechnology) (Homo sapiens)
# Construct: purchased Upstate Biotechnology
# Sequence (Q16539 whole entry): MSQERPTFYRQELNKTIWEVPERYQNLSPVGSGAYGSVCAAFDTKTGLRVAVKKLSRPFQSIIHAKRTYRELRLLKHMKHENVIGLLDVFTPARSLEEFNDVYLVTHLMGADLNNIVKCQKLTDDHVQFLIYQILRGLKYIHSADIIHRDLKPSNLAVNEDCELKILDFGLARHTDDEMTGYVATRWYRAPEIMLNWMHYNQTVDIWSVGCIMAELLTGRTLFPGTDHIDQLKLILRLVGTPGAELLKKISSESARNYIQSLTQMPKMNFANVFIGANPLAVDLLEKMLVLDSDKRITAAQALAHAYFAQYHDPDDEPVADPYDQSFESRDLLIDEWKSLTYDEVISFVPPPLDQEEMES
# measurement_notes: p38α biochemical assay (ATP turnover, luminescent detection, Cambrex PKlight)
# test_settings: p38α biochemical assay, Table 1 Biological Activity
readout_kind: IC50

For orientation, consider the following solved cases.
CC(C)NC(=O)c1csc(-c2oc(CN3CCN(C(=O)c4c(F)cccc4Cl)CC3)nc2-c2ccc(F)cc2)n1 [Example 437]; > 1 µM
COc1ccc(/C=C/C(=O)NCc2onc(-c3ccc(F)cc3)c2-c2nc(C(=O)NC(C)C)cs2)cc1O [Example 737]; > 1 µM
CC(C)NC(=O)c1csc(-c2c(-c3ccc(F)cc3)noc2CNC(=O)c2cccc(Cl)c2[N+](=O)[O-])n1 [Example 745]; > 1 µM
Cc1ccc(C(=O)N2CCN(Cc3nc(-c4ccc(F)cc4)c(-c4nc(C(=O)NC(C)C)cs4)o3)CC2)cc1C [Example 376]; > 1 µM
CC(C)NC(=O)c1csc(-c2oc(CN3CCN(C(=O)Cc4ccc(C(F)(F)F)cc4)CC3)nc2-c2ccc(F)cc2)n1 [Example 516]; ≤ 1 µM

What reported IC50 corresponds to CC(C)NC(=O)c1csc(-c2oc(CNC(=O)/C=C/c3ccc(Cl)cc3)nc2-c2ccc(F)cc2)n1 [Example 230] on active p38 alpha enzyme (Upstate Biotechnology) (Homo sapiens)?
≤ 1 µM

What reported IC50 corresponds to CC(C)NC(=O)c1csc(-c2c(-c3ccc(F)cc3)noc2CNC(=O)c2cc(O)c(O)c(O)c2)n1 [Example 665] on active p38 alpha enzyme (Upstate Biotechnology) (Homo sapiens)?
> 1 µM

----------
# target_or_system: active p38 alpha enzyme (Upstate Biotechnology) (Homo sapiens)
# Construct: purchased Upstate Biotechnology
# measurement_notes: p38α biochemical assay (ATP turnover, luminescent detection, Cambrex PKlight)
# test_settings: p38α kinase; Table 1 Biological Activity
readout_kind: IC50

For orientation, consider the following solved cases.
Cc1nc(-c2ccc(F)cc2)c(-c2nc(C(=O)NCc3ccccc3F)cs2)s1; ≤ 1000 nM
CC(C)NC(=O)c1csc(-c2c(-c3ccc(F)cc3)n[nH]c2C2CCN(C(=O)C(Cc3ccccc3)NC(=O)OC(C)(C)C)CC2)n1 (stereo not drawn); > 1000 nM
Cc1ccnc(NC(=O)c2csc(-c3sc(C)nc3-c3ccc(F)cc3)n2)c1; > 1000 nM
CC(C)NC(=O)c1csc(-c2oc(CN(C)CCc3ccccc3)nc2-c2ccc(F)cc2)n1; > 1000 nM
Cc1ccccc1NCc1onc(-c2ccc(F)cc2)c1-c1nc(C(=O)NC(C)C)cs1; > 1000 nM

Suppose we examine the compound CC(C)NC(=O)c1csc(-c2c(-c3ccc(F)cc3)n[nH]c2C2CCN(C(=O)c3cc([N+](=O)[O-])ccc3Cl)CC2)n1 ; what IC50 value has been reported?
> 1000 nM

Suppose we examine the compound CC(C)NC(=O)c1csc(-c2c(-c3ccc(F)cc3)n[nH]c2C2CCN(C(=O)[C@H](C)O)CC2)n1 ; what IC50 value has been reported?
≤ 1000 nM

Suppose we examine the compound O=C(NCC1(O)CCCCC1)c1csc(-c2c(-c3ccc(F)cc3)n[nH]c2C2CCNCC2)n1 ; what IC50 value has been reported?
> 1000 nM

Suppose we examine the compound CC(C)NC(=O)c1csc(-c2c(-c3ccc(F)cc3)noc2CN(C)Cc2ccccc2)n1 ; what IC50 value has been reported?
> 1000 nM
